- Test system: Thoracic aorta
- PROTOCOL: Vasorelaxant activity in Wister rat thoracic aorta rings assessed as reduction in maximal noradrenaline-induced spasms
- Format: functional, tissue-based
OUTCOME_MEASURE: IC50 (µM)

Please review the following examples before continuing.
O=C(CN1CCN(c2ccccc2)CC1)NNc1nncc2ccccc12
560
CN1CCN(CC(=O)NNc2nncc3ccccc23)CC1
160
O=C(CN1CCN(c2ccc(Cl)cc2)CC1)NNc1nncc2ccccc12
450
CN1CCN(CCC(=O)NNc2nncc3ccccc23)CC1
360

(a) O=C(Cn1ccnc1)NNc1nncc2ccccc12
(b) O=C(CN1CCN(c2cccc(C(F)(F)F)c2)CC1)NNc1nncc2ccccc12
Hi, I'm comparing a with b and wondering which one has the bigger number for IC50. Any idea? State your choice using its label. a

(1) O=C(CN1CCOCC1)NNc1nncc2ccccc12
(2) COc1ccccc1N1CCN(CCC(=O)NNc2nncc3ccccc23)CC1
(3) O=C(CCN1CCN(c2ccccc2)CC1)NNc1nncc2ccccc12
(4) O=C(CCn1ccnc1)NNc1nncc2ccccc12
// smallest IC50 at index 0, largest at the end Show the ranking through the labels, in the order asked for. 2, 3, 1, 4

* * *

- Tested on: Thoracic aorta
- PROTOCOL: Vasorelaxant activity in Wister rat thoracic aorta rings assessed as reduction in maximal noradrenaline-induced spasms
- Format: functional, tissue-based
pIC50: −log10 of the molar value. Where a name gives a salt, the structure may show the parent alone.
OUTCOME_MEASURE: pIC50

O=C(CCN1CCN(c2ccc(Cl)cc2)CC1)NNc1nncc2ccccc12
3.15
O=C(CCN1CCOCC1)NNc1nncc2ccccc12
3.24
COc1cc2nc(N3CCN(C(=O)c4ccco4)CC3)nc(N)c2cc1OC [PRAZOSIN HYDROCHLORIDE]
3.32
O=C(CCN1CCN(c2cccc(C(F)(F)F)c2)CC1)NNc1nncc2ccccc12
3.30
COc1ccccc1N1CCN(CC(=O)NNc2nncc3ccccc23)CC1
3.26
